Study System: KAT7 (Homo sapiens)
Construct: purchased ACTIVE MOTIF 31889
Sequence (O95251 whole entry): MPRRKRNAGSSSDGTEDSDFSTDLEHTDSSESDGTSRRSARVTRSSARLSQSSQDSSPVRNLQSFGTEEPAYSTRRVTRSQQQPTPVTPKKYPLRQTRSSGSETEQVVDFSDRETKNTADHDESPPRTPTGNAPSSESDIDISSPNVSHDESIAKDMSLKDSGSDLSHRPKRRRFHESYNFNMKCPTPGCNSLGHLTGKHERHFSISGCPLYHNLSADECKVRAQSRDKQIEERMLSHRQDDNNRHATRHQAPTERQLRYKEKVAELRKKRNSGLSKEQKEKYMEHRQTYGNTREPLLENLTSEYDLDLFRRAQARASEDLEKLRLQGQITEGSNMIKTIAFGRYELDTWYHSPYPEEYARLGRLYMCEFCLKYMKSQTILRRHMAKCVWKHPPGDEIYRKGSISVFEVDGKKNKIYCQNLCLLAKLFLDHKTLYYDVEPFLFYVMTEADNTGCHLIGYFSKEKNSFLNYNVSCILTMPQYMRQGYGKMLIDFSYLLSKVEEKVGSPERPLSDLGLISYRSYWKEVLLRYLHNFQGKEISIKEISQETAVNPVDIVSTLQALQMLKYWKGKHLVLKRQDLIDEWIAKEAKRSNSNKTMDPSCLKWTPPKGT
Protocol Description: Inhibition of human KAT enzymes, radioisotope method: KAT7
Format: biochemical
Run Parameters: selectivity, ratio of Ki
Observable: KAT7/ KAT6A

# Smiles Str, Study System, Reported Value
rows = [
    ("COc1ccc2c(c1S(=O)(=O)Nc1noc3cc(Cn4cccn4)c(F)c(OC)c13)OCCN2S(C)(=O)=O", "KAT7 (Homo sapiens)", 343),
    ("COc1ccc2c(c1S(=O)(=O)Nc1noc3cc(Cn4cccn4)c(F)c(OC)c13)OCCCO2", "KAT7 (Homo sapiens)", 458),
    ("COc1ccc2c(c1S(=O)(=O)Nc1noc3cc(Cn4cccn4)c(F)c(OC)c13)OCC=C2", "KAT7 (Homo sapiens)", 35),
    ("COc1ccc2c(c1S(=O)(=O)Nc1noc3cc(Cn4cccn4)c(F)c(OC)c13)OCCCN2C", "KAT7 (Homo sapiens)", 782),
]

Entry source: patent US20260174778A1
